- target_system: T1, SARS-COV-2 RBD (SARS-COV-2, UniProt P0DTC2 319-539)
- T1 construct: also called WT RBD
- method_summary: ELISA, RBD coated
Entries and their EC50
Return type: number; implicit unit ng/mL.

>>> readout_value("C1018 (antibody, V domains shown, IgG; V domains only) VH: QVQLVESGGGVVQPGRSLRLLCAASGFTFNTHGMHWVRQAPGKGLEWVAVIWFDGSNKYYADSVKGRFTISRDNSTNTLYLQMNSLRAEDTAVYYCARVYGGLPYYYAIDVWGQGTTVTVSS VL: QSVLTQPPSVSGAPGQRVTISCAGSSSNIGAGYGVHWSQQLPGRPPKLLIYGDSNRPSGVPDRFSGSNSGTSASLAITGLQAEDEAVYYCQSYDRSLRAWVFGGGTKLSVL")
3.09
>>> readout_value("C979 (antibody, V domains shown, IgG; V domains only) VH: QVQLVESGGGVVQPGRSLRLSCVASGFTFSNYGMHWVRQAPGKGLEWVAVILYDGSDKYYLDSVKGRFTISRDNSKNTLFLQLNSLRAEDTAVYYCAKEGNGYGYQYAGMDVWGQGTTVTVS VL: QSALTQPASVSGSPGQSITISCTGTNSDVGGYDYVSWYQQHPGKAPKLIIFEVINRPSGVSNRFSGSKSGNTASLTISGLRAEDEADYYCCSYTTSTTRVFGGGTKLTVL")
2.54

[ask] # lookup: EC50 of C847 (antibody, V domains shown, IgG; V domains only) VH: QVQLVESGGGVVQPGGSLRLSCGASGFTFSSYAMHWVRQAPGEGLEWVAVILYDGAGKFYADSVKGRFTISRDNSKNTLYLQMNSLRAEDTAVYYCARDYGDYVTHFDYWGQGALVTVSS VL: DIQMTQSPSSLSASVGDRVTITCRASQSISSYLNWYQQKPGKAPKLLIYTASSLQSGVPSRFSGSGSGTDFTLTITSLQPEDFATYYCQQSYNTPPWTFGQGTKVEIK
[reply] 3.06
